assay: clinical; settings: human, plasma, oral, 4 mg a day
Measurement kind: concentration at 1 day (ng/mL)
Answer with a number only, understood to be in ng/mL.

Task: Return value of concentration at 1 day for input Cc1cc2c(s1)Nc1ccccc1N=C2N1CCN(C)CC1 [olanzapine] , no commentary.
Output: 5
